System: CAOV3
test_summary: Primary qHTS to identify gynecologic anti-cancer compounds using libraries of approved drugs and bioactive compounds (AID 1345084); further: on the % scale 0 is the no-effect control and ±100 the full control effect; nearly all actives have a fitted effect of over 55% in size
assay_setup: Gynecologic cancer cell panel viability, ATPlite luminescence, 48 h; series mostly up to 57.5 µM
Records with an inconclusive call do not appear. Active and inactive are the calls of the source. The call rests on the fitted dose curve; in most records, active means well fitted cell-killing curve with a large enough effect; inconclusive means small, poorly fitted or top-dose-only effect, or effect the other way; inactive means flat fitted curve, though single readings scatter.

compound: O=C(O[C@H]1[C@H](Oc2ccc(O)cc2CO)O[C@H](CO)[C@@H](O)[C@@H]1O)c1ccccc1
activity change, negative = cytotoxicity: inactive

compound: Cc1ccccc1-n1nc(-c2c(-c3ccc(F)cc3)nn3c2NC[C@@H](CO)C3)ccc1=O
activity change, negative = cytotoxicity: inactive

compound: CCC(C)/C=C(C)/C=C/C1=CC2=C(Cl)C(=O)C(C)(OC(C)=O)C(=O)C2=CN1C(CCCN=C(N)N)C(=O)O (stereo unspecified)
activity change, negative = cytotoxicity: inactive

compound: C[C@H]1/C=C/C=C/C=C/C=C/C=C/[C@@H](O)[C@H](C(=O)O)[C@H](O)C[C@H](O)CCC[C@H](O)C[C@H](O)C[C@H](O)[C@@H](C)C(=O)O[C@@H]1C
activity change, negative = cytotoxicity: inactive

compound: C/C=C/C=C/C=C/C(=O)O[C@@H]1[C@@H](OC)C2=C(C(=O)N(C(CCC(=O)O)C(=O)O)C2)[C@@]2(C)CCCC(C)(C)[C@H]12 (stereo partly specified)
activity change, negative = cytotoxicity: inactive

compound: Cc1ccc2[nH]c(=O)c(C3=NN(C(=O)CCC(=O)O)C(c4ccc(Br)cc4)C3)c(-c3ccccc3)c2c1 (stereo unspecified)
activity change, negative = cytotoxicity: inactive

compound: CCCCNc1nc(N)c2[nH]c(=O)n(Cc3ccc(OCCN(C)C)nc3)c2n1
activity change, negative = cytotoxicity: inactive

compound: O=C(NCC(=O)N1CCCC1)Nc1ccc2ccccc2c1
activity change, negative = cytotoxicity: inactive

compound: CC(=O)OC[C@]12[C@H](OC(C)=O)[C@H](OC(=O)c3ccccc3)[C@@H]3[C@@H](OC(C)=O)[C@]1(OC3(C)C)[C@H](C)C[C@H](OC(=O)c1ccccc1)[C@@H]2OC(=O)c1ccccc1
activity change, negative = cytotoxicity: inactive

compound: COc1ccc(/C=C/C(=O)O[C@@H]2[C@@H](O[C@@H]3O[C@H](CO)[C@@H](O)[C@H](O)[C@H]3O)[C@@H](O)[C@H](O[C@H]3C4C=CO[C@@H](O[C@@H]5O[C@H](CO)[C@@H](O)[C@H](O)[C@H]5O)C4[C@@]4(CO)O[C@@H]34)O[C@H]2C)cc1 (stereo partly specified)
activity change, negative = cytotoxicity: -4.58% [at 11.6 µM] (inactive)

compound: COc1cc(C(CO)CO[C@@H]2O[C@H](CO)[C@@H](O)[C@H](O)[C@H]2O)ccc1O (stereo partly specified)
activity change, negative = cytotoxicity: inactive

compound: CC1CC=C2C1CC1(O)C(=O)CC2(C)C1(C)CO (stereo unspecified)
activity change, negative = cytotoxicity: inactive

compound: O=C(/C=C/c1ccc(O)cc1)O[C@H]1[C@H](OC2CCCCC2O)O[C@H](CO)[C@@H](O)[C@@H]1O (stereo partly specified)
activity change, negative = cytotoxicity: inactive

compound: CC1(C)CC[C@]2(C(=O)O[C@@H]3O[C@H](CO)[C@@H](O)[C@H](O)[C@H]3O)CC[C@]3(C)C(=CCC4[C@@]5(C)C[C@H](O)[C@H](O[C@@H]6OC[C@@H](O)[C@H](O)[C@H]6O)[C@@](C)(CO)C5CC[C@]43C)C2C1 (stereo partly specified)
activity change, negative = cytotoxicity: 10.5% [at 11.6 µM] (inactive)

compound: COc1cc([C@H]2OC[C@](O)(Cc3ccc(O[C@@H]4O[C@H](CO)[C@@H](O)[C@H](O)[C@H]4O)c(OC)c3)[C@@H]2CO)ccc1O
activity change, negative = cytotoxicity: inactive

compound: C=C(C)[C@H]1CC[C@]2(C(=O)O)CC[C@]3(C)C(CCC4[C@@]5(C)CCC(=O)C(C)(C)C5CC[C@]43C)C12 (stereo partly specified)
activity change, negative = cytotoxicity: inactive

compound: N#Cc1cccc(-c2c[nH]c3ncnc(N4CCOCC4)c23)c1
activity change, negative = cytotoxicity: inactive

compound: C=C1CCC[C@]2(C)CC[C@@](O)(C(=C)C(=O)O)C[C@@H]12
activity change, negative = cytotoxicity: inactive

compound: CC[C@@H](C)[C@H](N)C(=O)N1Cc2ccccc2C1
activity change, negative = cytotoxicity: inactive

compound: COc1cc(O)cc(C)c1C(=O)O[C@H]1[C@@H](O)[C@@H](n2ccc(=O)[nH]c2=O)O[C@@H]1CO
activity change, negative = cytotoxicity: inactive

compound: O=C(/C=C/N1C[C@@H]2C[C@@H]1CN2c1ccccn1)c1ccccc1O
activity change, negative = cytotoxicity: inactive

compound: CC1CCC2C(C)(C)[C@H](O)CC[C@]2(C)C12Cc1c(O)cc3c(c1O2)CN(C(CCC(=O)O)C(=O)O)C3=O (stereo partly specified)
activity change, negative = cytotoxicity: inactive

compound: C/C(=C\C(=O)C[C@@]12C(=O)O[C@]3(C)CC[C@H]1C[C@H]23)C(N)=O
activity change, negative = cytotoxicity: inactive

compound: CC(=O)O[C@H]1C[C@@]2(C)[C@@H](CC[C@H]3[C@@]4(C)C=CC(=O)[C@@H](C)[C@@H]4[C@H](OC(C)=O)C(=O)[C@@]32C)/C1=C(\CCC=C(C)C)C(=O)O
activity change, negative = cytotoxicity: inactive

compound: CC(=O)c1[nH]cc(CCC(=O)O)c1CC(=O)O
activity change, negative = cytotoxicity: inactive

compound: C[C@@H](CC[C@@H]1[C@@]2(C)CCCC(C)(C)C2CC[C@@]1(C)O)CC(=O)O (stereo partly specified)
activity change, negative = cytotoxicity: inactive

compound: C=C(C(=O)O)[C@@H]1CC[C@@]2(C)CCC[C@@](C)(O)[C@@H]2C1
activity change, negative = cytotoxicity: inactive

compound: Cc1occc1C(=O)n1ccnc1
activity change, negative = cytotoxicity: inactive

compound: COc1cc(/C=C/C(=O)O[C@@H]2C[C@](O)(C(=O)O)C[C@@H](O)[C@H]2O)ccc1O
activity change, negative = cytotoxicity: inactive

compound: C[C@]1(OC(=O)/C=C/c2ccccc2)C[C@@H](O)[C@]2(O)C=CO[C@@H](O[C@@H]3O[C@H](CO)[C@@H](O)[C@H](O)[C@H]3O)[C@@H]21
activity change, negative = cytotoxicity: inactive

compound: Cc1cc(Cn2cnc3c2CC(C(=O)O)N(C(=O)C(c2ccccc2)c2ccccc2)C3)ccc1N(C)C (stereo unspecified)
activity change, negative = cytotoxicity: inactive
